- assay notes: Pharmacokinetic study in mouse
- Type: in vivo
- Design: unit not given here
- measurement setup: plasma, IV, 2 mg/Kg
measured quantity: clearance

- mol smiles: "CP1(=O)CCN(CC#Cc2ccc3ncnc(Nc4ccc(OCc5cccc(F)c5)c(Cl)c4)c3c2)CC1"
  recorded result: 6.5

====

- assay notes: Pharmacokinetic study in mouse
- Assay type: in vivo
- measurement setup: plasma, PO, 10 mg/Kg, read-out: AUC0-inf-obs

- mol smiles: "CP1(=O)CCN(CC#Cc2ccc3ncnc(Nc4ccc(OCc5cccc(F)c5)c(Cl)c4)c3c2)CC1"
  AUC(0-inf): "9060 ng·h/mL"

====

- assay notes: Pharmacokinetic study in mouse
- Type: in vivo
- measurement setup: plasma, PO, 10 mg/Kg, read-out: T½ (converted)
measured quantity: half-life (h)

- compound: "CP1(=O)CCN(CC#Cc2ccc3ncnc(Nc4ccc(OCc5cccc(F)c5)c(Cl)c4)c3c2)CC1 [Example 4]"
  recorded result: 1.41

====

- assay notes: Pharmacokinetic study in rat
- Format: in vivo
- measurement setup: plasma, PO, 10 mg/Kg
measured quantity: Cmax (ng/mL)

- mol smiles: "CP1(=O)CCN(CC#Cc2ccc3ncnc(Nc4ccc(OCc5cccc(F)c5)c(Cl)c4)c3c2)CC1"
  recorded result: 1800

====

- assay notes: Pharmacokinetic study in dog
- Assay type: in vivo, Beagle dogs
- measurement setup: beagle, plasma, IV, 2 mg/Kg, read-out: AUC0-inf-obs
measured quantity: AUC(0-inf) (ng·h/mL)

- mol smiles: "CP1(=O)CCN(CC#Cc2ccc3ncnc(Nc4ccc(OCc5cccc(F)c5)c(Cl)c4)c3c2)CC1"
  recorded result: 1490

====

- assay notes: Pharmacokinetic study in dog
- Assay type: in vivo, Beagle dogs
- measurement setup: beagle, plasma, PO, 10 mg/Kg
- Protocol: The dog PK protocol is shown here, while PK study protocol of mouse and rat are similar to dog. Beagle dogs of this study were 6-8 month old and weighed 8 to 10 kg. Example 4 was dissolved in 2% DMA and 98% (40% HP-β-CD in deionized water) to yield concentration at 2 mg/mL for both intravenous (IV, a bolus injection via the lateral tail vein) and oral (PO, via oral gavage) administrations. […]

- mol smiles: "CP1(=O)CCN(CC#Cc2ccc3ncnc(Nc4ccc(OCc5cccc(F)c5)c(Cl)c4)c3c2)CC1"
  unit string: "ng/mL"
  Cmax: 2380

====

- assay notes: Pharmacokinetic study in rat
- Assay type: in vivo
- measurement setup: plasma, IV, 2 mg/Kg, read-out: Vz
- Description: The dog PK protocol is shown here, while PK study protocol of mouse and rat are similar to dog. Beagle dogs of this study were 6-8 month old and weighed 8 to 10 kg. Example 4 was dissolved in 2% DMA and 98% (40% HP-β-CD in deionized water) to yield concentration at 2 mg/mL for both intravenous (IV, a bolus injection via the lateral tail vein) and oral (PO, via oral gavage) administrations. […]

- mol smiles: "CP1(=O)CCN(CC#Cc2ccc3ncnc(Nc4ccc(OCc5cccc(F)c5)c(Cl)c4)c3c2)CC1"
  Vd [L]: 7.92

====

- assay notes: Pharmacokinetic study in rat
- Assay type: in vivo
- measurement setup: plasma, PO, 10 mg/Kg

- mol smiles: "CP1(=O)CCN(CC#Cc2ccc3ncnc(Nc4ccc(OCc5cccc(F)c5)c(Cl)c4)c3c2)CC1"
  unit string: "ng·h/mL"
  AUC(0-t): 9700

====

- assay notes: Pharmacokinetic study in mouse
- Format: in vivo
- measurement setup: plasma, IV, 2 mg/Kg, read-out: T½ (converted)
measured quantity: half-life (min)

- molecule: "CP1(=O)CCN(CC#Cc2ccc3ncnc(Nc4ccc(OCc5cccc(F)c5)c(Cl)c4)c3c2)CC1 [Example 4]"
  measured quantity: "half-life"
  unit string: "min"
  recorded result: 35.4
